biological target: T1, recombinant human Hsp70 (human, UniProt P0DMV8 1-641); experiment: other fluorescence titration; details: both partners purified
T1 construct: also called stress-inducible chaperone Hsp70
T1 sequence (P0DMV8 whole entry): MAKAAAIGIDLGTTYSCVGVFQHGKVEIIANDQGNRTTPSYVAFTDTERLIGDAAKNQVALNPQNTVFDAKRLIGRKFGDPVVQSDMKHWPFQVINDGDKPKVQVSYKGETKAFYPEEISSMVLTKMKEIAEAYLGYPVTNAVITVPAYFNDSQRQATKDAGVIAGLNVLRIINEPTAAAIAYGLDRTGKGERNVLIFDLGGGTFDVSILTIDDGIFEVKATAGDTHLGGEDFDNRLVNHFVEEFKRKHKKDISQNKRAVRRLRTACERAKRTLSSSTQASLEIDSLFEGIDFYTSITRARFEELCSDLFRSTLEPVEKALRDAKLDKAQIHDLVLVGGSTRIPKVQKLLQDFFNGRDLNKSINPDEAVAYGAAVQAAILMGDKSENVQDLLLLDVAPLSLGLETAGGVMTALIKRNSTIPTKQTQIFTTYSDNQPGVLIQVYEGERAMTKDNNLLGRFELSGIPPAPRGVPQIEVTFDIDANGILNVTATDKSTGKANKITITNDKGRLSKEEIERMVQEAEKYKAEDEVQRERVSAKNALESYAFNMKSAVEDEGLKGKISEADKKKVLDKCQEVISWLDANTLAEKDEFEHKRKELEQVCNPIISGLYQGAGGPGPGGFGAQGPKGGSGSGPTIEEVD
reported property: pIC50
Answers are plain numbers, as −log10 of the molar value.

Please look up its pIC50: NRLLLTG (also called NR peptide) [peptide NRLLLTG]
4.94
